# measurement protocol: Solubility of the active compounds in distilled water
reported metric: solubility (µg/mL)
Answer in µg/mL, number only, no unit symbol.

Ask: Returns the measured solubility for the input compound. Input: COC(=O)N(OC)c1ccccc1COc1ccn(-c2ccc(Cl)cc2)n1 [Pyraclostrobin]
Result: 2.4

---

# measurement protocol: physchem
# measurement setup: water
reported metric: solubility (µg/mL)
Return type: number; implicit unit µg/mL.

Ask: Please look up its solubility: O=C(Nc1ccccc1-c1ccc(Cl)cc1)c1cccnc1Cl [Boscalid]
Result: 4.6
